Field IC50: reported value for Lysine-specific histone demethylase 1A (Homo sapiens); entries drawn from several documents.

Reported Lysine-specific histone demethylase 1A (Homo sapiens) IC50 for item Cc1ccc(-c2c(-c3ccc(C#N)cc3)nc(N3CCC(C)(N)CC3)c(=O)n2C)cc1 was < 100 nM

Reported Lysine-specific histone demethylase 1A (Homo sapiens) IC50 for item CN(C)C1CCN(c2nc(-c3ccc(C#N)c(F)c3)c(-c3ccc4cn(C)nc4c3)c(=O)n2C)CC1 was < 100 nM

Reported Lysine-specific histone demethylase 1A (Homo sapiens) IC50 for item COc1ccc(-n2nc(NC[C@@H]3CCC[C@H](CN)C3)cc2-c2ccc(C#N)c(F)c2)cc1 was 1000 to 10000 nM

Reported Lysine-specific histone demethylase 1A (Homo sapiens) IC50 for item Cn1cc2cc(-c3c(-c4ccc(C#N)c(F)c4)cc(C(=O)N4CCC[C@@H](N)C4)n3CCO)ccc2n1 was < 100 nM

Reported Lysine-specific histone demethylase 1A (Homo sapiens) IC50 for item Cc1ccc(Cn2cc(-c3ccc(C#N)cc3)nc(N3CCC(N)CC3)c2=O)cc1 was < 100 nM

Reported Lysine-specific histone demethylase 1A (Homo sapiens) IC50 for item Cn1cc2cc(-n3cc(C(=O)N4CC[C@H](N)C4)nc3-c3ccc(C#N)c(F)c3)ccc2n1 was < 100 nM

Reported Lysine-specific histone demethylase 1A (Homo sapiens) IC50 for item CCO[C@H]1CCN(c2ccc(-n3c(-c4ccc(C#N)c(F)c4)nc4c(N5CCC[C@@H](N)C5)ccnc43)c(F)c2)C1 was 25 nM

Reported Lysine-specific histone demethylase 1A (Homo sapiens) IC50 for item CN1CCOc2cc(-c3c(-c4ccc(C#N)c(F)c4)nc4c(N5CCC[C@@H](N)C5)nccn34)ccc21 was 0.88 nM

Reported Lysine-specific histone demethylase 1A (Homo sapiens) IC50 for item N#Cc1ccc(-c2nc3c(N4CCC[C@@H](N)C4)ccnc3n2-c2ccc(N3CCCC3)cc2)cc1F was 23 nM

Reported Lysine-specific histone demethylase 1A (Homo sapiens) IC50 for item N#Cc1ccc(-c2nc3c(N4CCCC[C@@H](N)C4)ccnc3n2-c2ccc(C3CC3)cc2)cc1F was 23 nM

Reported Lysine-specific histone demethylase 1A (Homo sapiens) IC50 for item Cc1ccc(-c2cc(NCC3CCNC3)nn2-c2ccc(C#N)cc2)cc1 (stereo not shown) was < 100 nM

Reported Lysine-specific histone demethylase 1A (Homo sapiens) IC50 for item c1ccc([C@@H]2C[C@H]2NCC2(c3noc(C4CCNCC4)n3)CC2)cc1 was 50 to 100 nM

Reported Lysine-specific histone demethylase 1A (Homo sapiens) IC50 for item N[C@@H]1CCC[C@H](c2nc(C3(CN[C@@H]4C[C@H]4c4ccccc4)CC3)no2)C1 was 50 to 100 nM

Reported Lysine-specific histone demethylase 1A (Homo sapiens) IC50 for item CN(C)C(=O)c1ccc(-c2nc(C3(CN[C@H]4CC4c4ccccc4)CC3)no2)cc1 (stereo partly shown) was ≤ 50 nM

Reported Lysine-specific histone demethylase 1A (Homo sapiens) IC50 for item CN[C@@H]1CCCN(C(=O)c2nc(-c3ccc(C#N)c(F)c3)n(-c3ccc4nn(C)c(C)c4c3)c2C)C1 was < 100 nM

Reported Lysine-specific histone demethylase 1A (Homo sapiens) IC50 for item N#Cc1ccc(-c2nc3c(N4CCC[C@@H](N)C4)ccnc3n2-c2c(F)cc(C3CC3)cc2F)cc1F was 38 nM
